Tested on: Human papillomavirus type 1a protein E7 (residues 44-93)
Test: HPV1a E7 fragment binders on microarrays, primary screen, biochemical, small-molecule microarray, residues 44-93, 635 nm fluorescence (AID 1108);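 note: E7 fragment applied at 1 µg/mL in TBST for 1 h at 4 C; score combines spot fluorescence with its signal to noise ratio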
Conditions: small-molecule microarray binding, fluorescence 635 nm; higher = more signal
Exercise: for every item that follows, state its recorded composite z-score.
Form: value (number only, do not type unit).

Find the measured composite z-score: item CO[C@H]1COC(=O)CC=C[C@@H](C)COC(=O)[C@@H](C)NC(=O)CC=C[C@@H]1C , target or system Human papillomavirus type 1a protein E7 (residues 44-93).
-0.291

Item: CCN1C(C)=C(C(=O)OC)[C@@H](c2ccccc2)N2C(=O)[C@@]3(C(=O)OC)O[C@@]12[C@@H]1C(=O)N(C)C(=O)[C@@H]13 Test system: Human papillomavirus type 1a protein E7 (residues 44-93) Read-out: composite z-score Value: ?
-0.592

GET /values?readout=composite z-score&system=Human papillomavirus type 1a protein E7 (residues 44-93)&item= O=C(N1CCCCC1)[C@@]1(CCS(=O)(=O)c2ccccc2)N=C(c2ccc(OCCCO)cc2)O[C@H]1c1ccccc1
1.48

Form field: composite z-score recorded for COc1ccc(-c2ccccc2[C@@H]2N[C@H](C(=O)O)CC[C@H]2C)cc1 with Human papillomavirus type 1a protein E7 (residues 44-93) (enter value)
0.404

Provide value of composite z-score for this record tested with Human papillomavirus type 1a protein E7 (residues 44-93): CO[C@H]1COC(=O)[C@H](C)NC(=O)CC=C[C@@H](C)[C@H](NS(=O)(=O)c2ccc(C)cc2)COC(=O)CC=C[C@@H]1C
-0.9

Request body: readout composite z-score, system Human papillomavirus type 1a protein E7 (residues 44-93), query Cc1ccc(N2C(=O)c3ccccc3[C@@H](C(=O)NCC(F)(F)F)[C@@H]2c2ccc(CO)cc2)nc1 . Return the value.
-2.16

Record lookup: for Human papillomavirus type 1a protein E7 (residues 44-93), what composite z-score belongs to CCOC(=O)C1=C[C@@H](c2ccccc2)N(S(=O)(=O)c2ccc(C)cc2)[C@H]1c1ccc(F)cc1 ?
0.431

Request - read-out composite z-score | tested on Human papillomavirus type 1a protein E7 (residues 44-93) | compound O=C1OCC=C[C@H]2OC34C=CCN(Cc5ccccc5)C(=O)[C@H]3N(CCO)C(=O)[C@@H]4[C@@H]12 (stereo partly specified)
0.257

What reported composite z-score corresponds to CCCC[C@@H]1C[C@H]1[C@@H](NC(=O)c1ccccc1)c1ccccc1C(F)(F)F on Human papillomavirus type 1a protein E7 (residues 44-93)?
1.38

So what composite z-score did N#Cc1ccc(NN2C(C(O)c3ccc(I)cc3)C=CC3C(=O)N(c4ccccc4)C(=O)C32)cc1 (stereo unspecified) get with Human papillomavirus type 1a protein E7 (residues 44-93)?
1.48

Please provide the recorded composite z-score for [N-]=[N+]=NCc1ccccc1C[C@]1(C(=O)N2CCCCC2)N=C(c2ccc(OCCCO)cc2)O[C@H]1c1ccccc1CN=[N+]=[N-] , tested on Human papillomavirus type 1a protein E7 (residues 44-93).
1.41

GET /values?readout=composite z-score&system=Human papillomavirus type 1a protein E7 (residues 44-93)&item= Cc1cc(C)c(C(O)C2C=CC3C(=O)N(C)C(=O)C3N2N2CCCCC2)c(C)c1 (stereo unspecified)
1.37

Give recorded composite z-score with Human papillomavirus type 1a protein E7 (residues 44-93) for the following compound: O=C(NCc1ccccc1)c1ccc(Br)cc1[N+](=O)[O-]
-0.0303

Record lookup: for Human papillomavirus type 1a protein E7 (residues 44-93), what composite z-score belongs to O=C1C[C@@](C(=O)NC2CC2)(c2ccc([N+](=O)[O-])cc2)[C@@H](c2ccc(CO)cc2I)N1CC12CC3CC(CC(C3)C1)C2 ?
1.37

Lab note: need composite z-score with Human papillomavirus type 1a protein E7 (residues 44-93) for entry COC(=O)[C@@]1(Cc2ccc(OC)cc2)[C@H]2c3cc(C(=O)N(C)C)n(CCc4ccc(OC)c(Br)c4)c3C[C@H]2CN1C(=O)c1ccccc1 , please look it up.
1.33

Quick check: composite z-score on Human papillomavirus type 1a protein E7 (residues 44-93), item C=CCC(OC(C)=O)[C@@H]1[C@@H](N(Cc2cc3ccccc3o2)C(=O)Cc2ccc(F)cc2)c2cc(OCCCO)ccc2N1C(=O)c1ccc(-c2ccccc2)cc1 (stereo partly specified) ?
-0.524
